Origin of measurements: paper PMC4734667

# Assay method text: Stability in pooled human liver microsomes
# Type: in vitro ADME
# Condition: pH 7.4, 1 μM compound, read-out: HLM t½

Compound	Result unit	half-life at 1 μM
Cc1ncc(CNC(=O)c2cnc(CNS(=O)(=O)c3ccc(F)c(F)c3)c(C)n2)s1	min	63
Cc1ncc(CNC(=O)c2cnc(CNS(=O)(=O)c3ccc(F)c(Cl)c3)cn2)s1	min	53
O=C(NNC(=O)c1ccc(CNS(=O)(=O)c2ccc(F)c(Cl)c2)cc1)c1ccccc1 [TCN-201, reference compound]	min	19
